System: MS2 coat protein
Assay: apparent KD of MS2 coat protein; designed switch direction (-1 OFF switch, 1 ON switch): -1; higher = weaker reporter binding
Conditions: input ligand: FMN 200 uM
# apparent KD of MS2 coat protein per record follows
Number in nM, nothing else.

For orientation, consider the following solved cases.
>>> endpoint_result("AAAUGACAUUAGGAUAUGUAACGCGGUUGCCGCACAGAAGGGAUGACUUGAGGAUCACCCAAGUGACCCAAGGA [Tixebion] (Eterna round: R97, puzzle: Exclusion 6)")
26.4
>>> endpoint_result("UCUCGACAUGAGGAUCACCCAUGUCAGGAUAUUGUGUUUGAGGUUUUUUACCUUUUGGCAAGAAGGGAUGUGUG [LRO-Excl1-21] (Eterna round: R96, puzzle: Exclusion 1)")
27.5

For the next question, use this sequence.
Prompt: # return recorded apparent KD of MS2 coat protein for entry CGCCUACAUGAGGAUCACCCAUGUGAGGAUAUCCUGCGAGGAUCAAAAGAUCCUCGUGGGAGAAGGCGCCUGGA [Omei Ex1 B6] (Eterna round: R97, puzzle: Exclusion 1)
Completion: 37.6
